Listed here: items and their measured cytotoxicity at 70.5 h.
# method.description: Human HepG2 cell viability assay in 384 well format
# Type: toxicity, cell-based
# Set-up: dose 125 nL, time 70.5 hour; concentration not given beside the values
# test.context: HepG2 cells, read-out: Inhibition
Just the number in %, nothing appended.

[
  {
    "compound": "Cc1occc1C(=O)N1CCC2(CC1)CC(OCc1ccccn1)CO2 (centres undefined)",
    "cytotoxicity at 70.5 h [%]": 11.9
  },
  {
    "compound": "O=C(Cc1ccc2c(c1)OCCO2)NCCc1nnc2n1CCC2",
    "cytotoxicity at 70.5 h [%]": 12.2
  },
  {
    "compound": "CC(C)CCN1C[C@H]2C[C@H](C(=O)NCc3ccccc3)[C@@H](C1)O2",
    "cytotoxicity at 70.5 h [%]": 5.49
  },
  {
    "compound": "Cc1nc(S(=O)(=O)CCn2cccn2)n(C2CCCC2)c1C",
    "cytotoxicity at 70.5 h [%]": 10.5
  }
]

Can you look up the measured cytotoxicity at 70.5 h of Cc1nn(C)cc1CN(C)C(=O)c1cccnc1 for me?
8.22

Follow-up item: CC(C)CN1CC(C(=O)NCCc2ccc(OC(F)F)cc2)CC1=O (centres undefined)
9.73

Follow-up item: Cc1nn(C)c(C)c1C(=O)NC(C)CC(=O)c1cccs1 (centres undefined)
-11.1

Follow-up item: CC(C(=O)N1CCCN(Cc2ccc(C#N)cc2)CC1)n1cccn1 (centres undefined)
1.6

Follow-up item: CC1CN(Cc2ccc(-n3cccn3)cc2)CCO1 (centres undefined)
0.696

Follow-up item: CCN1CCN(c2ncc3c(=O)n(Cc4ccco4)ccc3n2)CC1
-5.38

Follow-up item: c1cnc(OCc2nnc3n2CCN(CC2CC2)C3)nc1
0.759

Follow-up item: c1ncn(CCNC2CCCN(Cc3noc(C4CC4)n3)C2)n1 (centres undefined)
-11.2

Follow-up item: O=S(=O)(c1cn[nH]c1)N1CCC(O)(CN2CCC(F)(F)CC2)C1 (centres undefined)
1.83

Follow-up item: COCC(c1cccc(C(F)(F)F)c1)N(C)C(=O)c1ccco1 (centres undefined)
-1.02

Follow-up item: O=C(Cn1ccc(=O)[nH]c1=O)Nc1ccccc1F
-4.99

Follow-up item: CN(Cc1nccn1C)S(=O)(=O)N1CCCC1c1ccco1 (centres undefined)
-11.4

Follow-up item: COCCN1CCO[C@@H]2CN(Cc3sccc3C)C[C@@H]2C1
1.15

Follow-up item: Cn1ccc2cc(C(=O)NC3CCS(=O)(=O)C3)ccc21 (centres undefined)
-10.9

Follow-up item: O=C(N[C@H]1CC[C@H](O)CC1)c1ccc2nc(-c3ccccc3)cn2c1
-7.18

Follow-up item: COc1ccc(CN2CC[C@@]3(C2)[C@H](O)CN(C)S3(=O)=O)cc1F
0.857

Follow-up item: CNC(=O)[C@@H](CC(C)C)N1CCC[C@H]1C(=O)N(C)Cc1cccnc1
-6.49

====

# method.description: Human HepG2 cell viability assay in 384 well format
# Assay type: toxicity, cell-based
# Set-up: dose 125 nL, time 70.5 hour; concentration not given beside the values
# test.context: HepG2 cells, read-out: Inhibition
measured.attribute: cytotoxicity at 70.5 h (%)
Just the number in %, nothing appended.

Solved cases (5 shown):
[
  {
    "molecule": "COc1cc(C(=O)NS(=O)(=O)c2cncc(Br)c2)cc(OC)c1C",
    "uom": "%",
    "measured.number": -8.02
  },
  {
    "molecule": "Cc1cc(C2CCCN(S(=O)(=O)c3cn(C)cn3)C2)ccn1 (configuration not stated)",
    "uom": "%",
    "measured.number": -5.97
  },
  {
    "molecule": "O=S(=O)(c1ccc(-c2cnco2)cc1)N1CCCC2(CCNCC2)CC1",
    "uom": "%",
    "measured.number": 0.207
  },
  {
    "molecule": "CN(C)c1nccc(N(C)C2CCN(CC3CCOC3)CC2)n1 (configuration not stated)",
    "uom": "%",
    "measured.number": -4.93
  },
  {
    "molecule": "COc1ncc(C2(O)CCN(Cc3cccc(F)c3F)CC2)c(OC)n1",
    "uom": "%",
    "measured.number": -3.22
  }
]

Can you look up the measured cytotoxicity at 70.5 h of CC1CN(C)CCN1C(=O)c1cccn1Cc1cccnc1 (configuration not stated) for me?
-7.82

Follow-up item: Cc1cc(C)c(CNC(=O)N2CCN(c3cnccn3)CC2)c(=O)[nH]1
-4.71

Follow-up item: CSc1sc(NC(=O)Cc2c(C)nc(C)[nH]c2=O)nc1C
3.66

Follow-up item: COc1ccc(C)cc1-c1csc(Cn2ccc(=O)[nH]c2=O)n1
2.92

Follow-up item: CC1CN(CC(=O)NCc2ccccn2)CCN1Cc1nccn1C (configuration not stated)
-3.22

Follow-up item: Cc1nn(C)c(C)c1C1CCCN1Cc1cn2ccsc2n1 (configuration not stated)
-0.408

====

# method.description: Human HepG2 cell viability assay in 384 well format
# Assay type: toxicity, cell-based
# Design: dose 125 nL, time 70.5 hour; concentration not given beside the values
# test.context: HepG2 cells, read-out: Inhibition
measured.attribute: cytotoxicity at 70.5 h (%)
Just the number in %, nothing appended.

Solved cases (5 shown):
[
  {
    "compound": "CCCSc1nc(N)c(NC(=O)c2ccc(OC)c(OC)c2)c(=O)[nH]1",
    "measured.number": 12
  },
  {
    "compound": "Cc1noc(C)c1CN1CC2(CCN(C(=O)c3ccoc3C)C2)CC1=O (configuration not stated)",
    "measured.number": -6.54
  },
  {
    "compound": "CC(C)c1csc(C(=O)N2CCCC(Cn3cc(CO)nn3)C2)n1 (configuration not stated)",
    "measured.number": -0.0869
  },
  {
    "compound": "CC(C)c1nccn1C1CCCN(C(=O)c2ccc3c(c2)COC3)C1 (configuration not stated)",
    "measured.number": -8.53
  },
  {
    "compound": "Cc1cc(NCc2ccc(O)cc2)n2nc(C)cc2n1",
    "measured.number": -2.08
  }
]

Can you look up the measured cytotoxicity at 70.5 h of Cn1ncc2ccc(C3CCCN(C(=O)Cc4cccs4)C3)nc21 (configuration not stated) for me?
13.1

Follow-up item: CCCc1cnc(C)nc1N1CCC(Cc2cccc(C(N)=O)c2)C1 (configuration not stated)
-2.67

Follow-up item: CC[C@H]1CN2CC[C@H]1C[C@@H]2CNC(=O)Nc1cccc(C(F)(F)F)c1
-3.6

====

Listed here: items and their measured cytotoxicity at 70.5 h.
# method.description: Human HepG2 cell viability assay in 384 well format
# Assay type: toxicity, cell-based
# Design: dose 125 nL, time 70.5 hour; concentration not given beside the values
# test.context: HepG2 cells, read-out: Inhibition
Just the number in %, nothing appended.

Solved cases (2 shown):
[
  {
    "compound": "c1ccc(CCn2cc(-c3nc(CN4CCOCC4)no3)nn2)cc1",
    "uom": "%",
    "cytotoxicity at 70.5 h": -6.91
  },
  {
    "compound": "CCOC(=O)Cn1c(=O)nc(N)c2c(-c3ccc(OC)cc3)csc21",
    "uom": "%",
    "cytotoxicity at 70.5 h": -12.9
  }
]

Can you look up the measured cytotoxicity at 70.5 h of CC(C)N(C)S(=O)(=O)c1ccc2c(c1)CCN(C(=O)c1cnccn1)C2 for me?
-5.23

Follow-up item: c1nc(-c2nc(C3CCOC3)no2)cs1 (stereo not drawn)
-1.71

Follow-up item: COc1ccccc1CCN1CCCC(CN(C)Cc2c[nH]c(C)n2)C1 (stereo not drawn)
14.9

Follow-up item: c1cc2c(cc1-c1noc3c1CN(C1CCSCC1)CC3)OCO2
12.6

====

# method.description: Human HepG2 cell viability assay in 384 well format
# Assay type: toxicity, cell-based
# Design: dose 125 nL, time 70.5 hour; concentration not given beside the values
# test.context: HepG2 cells, read-out: Inhibition
Listed here: items and their measured cytotoxicity at 70.5 h.
Just the number in %, nothing appended.

Solved cases (5 shown):
[
  {
    "smiles.repr": "COc1cccc(CN(C)CCCn2cnc3c(N)ncnc32)c1",
    "measured.attribute": "cytotoxicity at 70.5 h",
    "measured.number": -9.38
  },
  {
    "smiles.repr": "CN(C)C(=O)CN1CCc2ncnc(NC3CCC3)c2CC1",
    "measured.attribute": "cytotoxicity at 70.5 h",
    "measured.number": 0.00388
  },
  {
    "smiles.repr": "Cc1nc(N2CCN(C)CC2)ncc1C(=O)N1C[C@@H](C)[C@@](C)(O)C1",
    "measured.attribute": "cytotoxicity at 70.5 h",
    "measured.number": 4.1
  },
  {
    "smiles.repr": "O=C(N[C@@H]1CCC[C@@H](N2CCCC2)[C@@H]1O)c1cnn2cccnc12",
    "measured.attribute": "cytotoxicity at 70.5 h",
    "measured.number": -1.75
  },
  {
    "smiles.repr": "Cc1nc(-c2noc3ccc(C(=O)NCCN4CCOCC4)cc23)cs1",
    "measured.attribute": "cytotoxicity at 70.5 h",
    "measured.number": -8.24
  }
]

Let us examine a further case.
Can you look up the measured cytotoxicity at 70.5 h of CNS(=O)(=O)CC(=O)N1CCCc2cc(C(C)C)ccc21 for me?
-98.6
